# testName: Tissue distribution of radioactivity after intravenous administration in rats
# Assay type: in vivo, female Fischer 344 rats (printed "femal Fischer 344 rats")
# testParameters: rat, kidneys, iv, Table 1; kidneys; 60 min after i.v. injection; read-out: Mean percent injected dose/gm, Kidneys
metricName: tissue uptake at 1 h (%ID/g)
Provide the reading as a plain figure in %ID/g.

**Query** Using the record for O=C1C=CC(=O)N1c1ccc([125I])cc1 [[^125 I]4, N-(p-[^125 I]iodophenyl)maleimide] , report its tissue uptake at 1 h.
**Result** 2.07

====

# testName: Tissue distribution of radioactivity after intravenous administration in rats
# Assay type: in vivo, female Fischer 344 rats (printed "femal Fischer 344 rats")
# testParameters: rat, heart, iv, Table 2; heart; 30 min after i.v. injection; read-out: Mean percent injected dose/gm, Heart
metricName: tissue uptake at 0.5 h (%ID/g)
Provide the reading as a plain figure in %ID/g.

**Query** Using the record for O=C1C=CC(=O)N1c1ccc([125I])cc1 [[^125 I]4, N-(p-[^125 I]iodophenyl)maleimide] , report its tissue uptake at 0.5 h.
**Result** 0.79
